These data points were gathered from PubChem BioAssay.

- Test system: Fibrinogen (Alexa647-labelled)
- protocol: fibrinogen binders on compound microarrays, profiling panel, artefact control for SMM control-protein annotation, biochemical, small-molecule microarray, 635/667 nm fluorescence (AID 1131);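 further: z-score merges 667 nm fluorescence with per-spot signal-to-noise over triplicate slides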
- measurement-conditions: fibrinogen-A647 binding fluorescence, higher = more signal
Would you please tag the item t when its composite z-score is 0.6 or above, and f when it is below?

compound: COC(=O)[C@@H]1CC[C@H](C)[C@@H](c2ccc(C)cc2)N1C(=O)c1ccc(C=NOC(C)CN2CCCCc3nc(C)c(C)cc32)cc1 (stereo not given in full)
group-label: f
--
compound: CCc1cc2c(nc1CC)CCN(CCC(C)=NOC[C@@H](O)[C@H]1O[C@@H]3OC(C)(C)O[C@@H]3[C@H]1O)C2
group-label: f
--
compound: CC(CCC(=O)OC[C@H]1O[C@H](C#Cc2ccccc2)C=C[C@@H]1Oc1ccc(C)cc1)=NO[C@@H](C)c1cn([C@H](CO)Cc2ccccc2)nn1
group-label: t
--
compound: C[C@@H]1CCC2C(=O)N(Cc3ccccc3)C[C@@H](O)CN2[C@H]1c1ccc(Br)cc1 (stereo not given in full)
group-label: t
